- Experimental target: UniProtKB O95342
- Sequence (O95342 whole entry): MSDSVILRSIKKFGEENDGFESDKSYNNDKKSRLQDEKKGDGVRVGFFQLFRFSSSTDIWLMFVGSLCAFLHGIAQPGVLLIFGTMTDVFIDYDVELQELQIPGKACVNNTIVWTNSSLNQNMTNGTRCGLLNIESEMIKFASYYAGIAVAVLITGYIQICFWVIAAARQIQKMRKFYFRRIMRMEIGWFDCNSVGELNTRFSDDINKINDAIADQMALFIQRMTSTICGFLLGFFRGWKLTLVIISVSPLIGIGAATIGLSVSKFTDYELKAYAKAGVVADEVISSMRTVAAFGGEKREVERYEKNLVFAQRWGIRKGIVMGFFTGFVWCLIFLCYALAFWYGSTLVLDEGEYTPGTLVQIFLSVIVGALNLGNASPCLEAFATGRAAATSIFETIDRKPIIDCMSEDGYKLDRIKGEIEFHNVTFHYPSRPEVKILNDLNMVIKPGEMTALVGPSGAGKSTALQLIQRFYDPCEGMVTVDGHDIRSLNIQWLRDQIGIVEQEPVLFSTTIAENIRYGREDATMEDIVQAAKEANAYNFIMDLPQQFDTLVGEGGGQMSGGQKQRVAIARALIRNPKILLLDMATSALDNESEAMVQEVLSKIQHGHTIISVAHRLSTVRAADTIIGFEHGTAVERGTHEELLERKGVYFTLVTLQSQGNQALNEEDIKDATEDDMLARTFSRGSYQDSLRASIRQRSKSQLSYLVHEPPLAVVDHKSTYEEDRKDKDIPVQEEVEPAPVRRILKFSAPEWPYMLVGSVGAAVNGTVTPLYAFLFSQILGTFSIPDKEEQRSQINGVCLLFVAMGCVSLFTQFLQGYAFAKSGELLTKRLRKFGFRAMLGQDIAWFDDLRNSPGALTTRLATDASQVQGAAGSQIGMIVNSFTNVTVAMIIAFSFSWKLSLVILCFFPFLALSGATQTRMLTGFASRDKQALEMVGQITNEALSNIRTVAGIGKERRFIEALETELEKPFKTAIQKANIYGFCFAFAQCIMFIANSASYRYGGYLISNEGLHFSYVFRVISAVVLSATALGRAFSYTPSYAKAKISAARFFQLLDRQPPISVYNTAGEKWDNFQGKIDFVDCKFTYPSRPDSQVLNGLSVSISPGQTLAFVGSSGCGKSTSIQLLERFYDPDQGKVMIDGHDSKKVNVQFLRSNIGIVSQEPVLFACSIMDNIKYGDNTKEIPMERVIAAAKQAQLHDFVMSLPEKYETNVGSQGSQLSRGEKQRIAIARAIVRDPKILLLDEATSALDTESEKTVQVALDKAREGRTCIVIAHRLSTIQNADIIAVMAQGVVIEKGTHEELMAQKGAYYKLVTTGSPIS
- Test protocol: BSEP inhibition, [3H]TCA uptake into membrane vesicles
- Format: biochemical
- Details: [3H]TCA transport
- Procedure: Covalent binding of TAK-994 was assessed by incubating [^14C]TAK-994 with human hepatocytes. The CVB level was determined by relating the total amount of radioactivity (pmol equivalent) to the protein concentration in each sample. Assessment of TAK-994 inhibition potential for the bile salt efflux pump (BSEP) was assessed by incubating [^3H(G)]taurocholic acid with TAK-994 (0 to 100 μM/l) or cyclosporin A after addition of 10 μl of membrane vesicles expressing BSEP or control membrane vesicles. […]
Measured quantity: IC50 (µM)
Use µM as the unit, but write only the number.

Record CC(C)(O)C(=O)N1CC[C@H](NS(C)(=O)=O)[C@@H]1Cc1cccc(-c2cc(F)cc(F)c2)c1F.CC(C)(O)C(=O)N1CC[C@H](NS(C)(=O)=O)[C@@H]1Cc1cccc(-c2cc(F)cc(F)c2)c1F.O.O.O [TAK-994] ; system UniProtKB O95342; IC50 = 34.1

---

- Test protocol: HepG2 Glu/Gal 24-h cytotoxicity (mitochondrial toxicity)
- Type: cell-based, human
- Details: human, HepG2 cells
Measured quantity: IC50 at 24 h

COc1cccc([C@H]2O[C@H](CC(=O)N3CCC(CC(=O)O)CC3)C(=O)N(CC(C)(C)COC(C)=O)c3ccc(Cl)cc32)c1OC: > 100 µM

Query compound follows.
So, Cc1cc(OCCCS(C)(=O)=O)cc(C)c1-c1cccc(COc2ccc3c(c2)OC[C@H]3CC(=O)O)c1 ? Its IC50 at 24 h was > 100 µM

---

- Test protocol: Plasma exposure in NT1 patients
- Assay type: in vivo, human
- Details: 30 mg BID
Measured quantity: Cmax (nM)
Entry rule: numbers only, all in nM.

The compound listed as CC(C)(O)C(=O)N1CC[C@H](NS(C)(=O)=O)[C@@H]1Cc1cccc(-c2cc(F)cc(F)c2)c1F.CC(C)(O)C(=O)N1CC[C@H](NS(C)(=O)=O)[C@@H]1Cc1cccc(-c2cc(F)cc(F)c2)c1F.O.O.O [TAK-994] shows Cmax equal to 408

---

- Test system: human liver microtissues
- Test protocol: Human liver microtissue (co-culture) cytotoxicity, cellular ATP
- Format: cell-based
- Details: Homo sapiens, 336 h; read-out: Liver microtissue toxicity for 14 days IC50
Measured quantity: IC50 (µM)
Give your result in µM as a bare value.

Value of IC50 reported for the compound COc1cccc([C@H]2O[C@H](CC(=O)N3CCC(CC(=O)O)CC3)C(=O)N(CC(C)(C)COC(C)=O)c3ccc(Cl)cc32)c1OC is 58.6

---

- Test protocol: Plasma exposure in NT1 patients
- Type: in vivo, human
- Details: 90 mg BID
Measured quantity: Cmax (nM)
Write the value in nM as a bare number.

Cmax reading for CC(C)(O)C(=O)N1CC[C@H](NS(C)(=O)=O)[C@@H]1Cc1cccc(-c2cc(F)cc(F)c2)c1F.CC(C)(O)C(=O)N1CC[C@H](NS(C)(=O)=O)[C@@H]1Cc1cccc(-c2cc(F)cc(F)c2)c1F.O.O.O : 948

---

- Test system: human liver microtissues
- Test protocol: Human liver microtissue (co-culture) cytotoxicity, cellular ATP
- Format: cell-based
- Details: Homo sapiens; cellular ATP; read-out: IC50, liver microtissues (Fig. 2B)
Measured quantity: pIC50
Conceptually, pIC50 converts a concentration in mol/L into minus its log10.

Sample CN(C)CCCN1c2ccccc2Sc2ccc(Cl)cc21 [Chlorpromazine, chlorpromazine, reference compound] ; pIC50 observed: 5.12

---

- System: HepG2 cells
- Test protocol: HepG2 72-h cytotoxicity assay (glucose medium, ATP content)
- Assay type: cell-based, human
- Protocol: Cytotoxicity of TAK-994 was evaluated in glucose or galactose medium after 24 h and in glucose medium after 72 h in HepG2 cells, with cryopreserved HepG2 cells thawed and seeded onto assay plates at 5,000 cells/well in glucose or galactose medium for the 24-h assay and at 2,500 cells/well in glucose medium for the 72-h assay. […] Cytotoxicity of TAK-994 was also assessed using HepG2 cells with CYP3A4 overexpression using a lentivirus vector. […]
Measured quantity: IC50

The measured IC50 associated with CC(C)(O)C(=O)N1CC[C@H](NS(C)(=O)=O)[C@@H]1Cc1cccc(-c2cc(F)cc(F)c2)c1F.CC(C)(O)C(=O)N1CC[C@H](NS(C)(=O)=O)[C@@H]1Cc1cccc(-c2cc(F)cc(F)c2)c1F.O.O.O reads > 100 µM

---

- Tested on: human liver microtissues
- Test protocol: Human liver microtissue (co-culture) cytotoxicity, cellular ATP
- Assay type: cell-based
- Details: Homo sapiens, 336 h; without FFA; read-out: IC50, co-culture (14 days) (Fig. 3A)
Measured quantity: pIC50
As a rule, pIC50 stands for the negative log10 of the concentration, concentration in M.

Input CN(C)CCCN1c2ccccc2Sc2ccc(Cl)cc21 [Chlorpromazine, chlorpromazine, reference compound] . Output pIC50: 5.21

Data provenance is paper PMC11939078.
